- measuredTarget: cynomolgus PD-L1 Fc-fusion protein (cynomolgus, UniProt G7PSE7 19-238)
- Sequence (G7PSE7 entry or part of it limits assumed): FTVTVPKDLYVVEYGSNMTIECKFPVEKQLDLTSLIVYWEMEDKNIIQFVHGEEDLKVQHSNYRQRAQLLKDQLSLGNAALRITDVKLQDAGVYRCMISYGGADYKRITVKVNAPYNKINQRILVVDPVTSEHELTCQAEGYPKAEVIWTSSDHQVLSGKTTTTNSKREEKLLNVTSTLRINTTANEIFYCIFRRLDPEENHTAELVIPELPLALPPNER
- test: SPR, cyno PD-L1-Fc immobilised, antibody analyte
measurementKind: koff (s⁻¹)

binder="29A8_chimeric (antibody, human IgG1, kappa, N297A, V domains shown, Human IgG1 with effector-less Fc mutations, human kappa; also called chimeric 29A8H8C7) VH: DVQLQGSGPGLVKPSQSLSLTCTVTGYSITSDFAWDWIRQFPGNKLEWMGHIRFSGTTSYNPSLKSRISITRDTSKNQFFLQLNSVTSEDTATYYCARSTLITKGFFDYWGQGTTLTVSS VL: DIVMTQSHKFMSTSVGGRVSITCKASQDVSPAVAWYQQKPGQSPKLLIYWASTRHTGVPDRFTGSGSGTDFTLTISSVQTEDLALYYCQQHYSTPWTFGGGTKLEIKR" measurementkind=koff reportedmeasurement=7.3e-05
binder="53C1_VH3-VL1.M1 (antibody, human IgG1, kappa, N297A, V domains shown, Humanized, hIgG1 effector-less Fc, kappa; see recheck on K24R in the .M1 light chain) VH: EVQLVQSGAEVKKPGASVKLSCKASGYIFTGYGITWVRQAPGQGLEWIGEIFPRRVNTYYSEKFKGRATLTADTSTSTAYMELRSLRSDDTAVYFCARDYDPYFALDYWGQGTTVTVSS VL: DIQMTQSPSSLSASVGDRVTITCRASQDVSTAVDWYQQKPGKAPKLLIYSASYRYTGVPDRFSGSGSGTDFTFTISSLQPEDIATYYCQQHYSIPFTFGQGTKLEIKR" measurementkind=koff reportedmeasurement=6.8e-05
binder="53C1_chimeric (antibody, human IgG1, kappa, N297A, V domains shown, Human IgG1 with effector-less Fc mutations, human kappa; also called chimeric 53C1F3D4) VH: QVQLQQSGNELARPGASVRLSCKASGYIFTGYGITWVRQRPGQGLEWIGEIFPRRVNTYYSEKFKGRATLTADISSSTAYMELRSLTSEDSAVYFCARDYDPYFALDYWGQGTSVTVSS VL: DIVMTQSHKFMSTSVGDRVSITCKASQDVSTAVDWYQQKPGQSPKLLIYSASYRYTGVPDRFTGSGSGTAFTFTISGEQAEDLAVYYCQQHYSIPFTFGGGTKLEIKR" measurementkind=koff reportedmeasurement=9.5e-05
binder="29A8_VH5-VL1.M1 (antibody, human IgG1, kappa, N297A, V domains shown, Humanized, hIgG1 effector-less Fc, kappa; see recheck on K24R in the .M1 light chain) VH: EVQLQESGPGLVKPSETLSLTCTVSGYSITSDFAWDWIRQPPGKGLEWIGHIRFSGTTSYNPSLKSRVTISRDTSKNQFSLKLSSVTAADTAVYYCARSTLITKGFFDYWGQGTLVTVSS VL: DIQMTQSPSSLSASVGDRVTITCRASQDVSPAVAWYQQKPGKAPKLLIYWASTRHTGVPSRFSGSGSGTDFTLTISSLQPEDFATYYCQQHYSTPWTFGQGTKVEIKR" measurementkind=koff reportedmeasurement=0.0002
